procedure text: Components of the Cytosolic LPS Sensing Pathway: Gene Identification via Genome-wide siRNA Screen;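 further: robust z of the log signal after scaling to non-targeting control siRNA wells of the plate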
condition context: RAW264.7 macrophages, IL-1a HTRF, actives lie on both sides, screened at 100 nM (by protocol), cells primed 5 h with Pam3CSK4 first
Hit rate of the full screen: of about 53,000 sequences, about 3,700 (7%) were called active. The sample as a whole holds a higher share of actives than the screen did.
reported property: z-score
Keep it simple and answer with nothing but the number.

Consider GCUGUUCCUCUUUCUUUCUTT against Olfr522 . Its measured z-score is 0.315

Consider GGAAGUAACCACAUCCUAUTT against Epn2 . Its measured z-score is -0.628

Consider GCUACAGAACCUGCUCUACTT against Thoc5 . Its measured z-score is 0.391

Consider GGAUAUUAACUAUGGGUUUTT against Tlr2 . Its measured z-score is 0.605

Consider GCCCAGAAAUAUAAUCAAATT against Bub1 . Its measured z-score is 2.17

Consider the additional sequence presented here.
Consider GGCAAAAUAUUGCACAGCGTT against Tsga10 . Its measured z-score is -0.474
